system: NCI/ADR-RES; assay: NCI tumour cell line growth inhibition, 48 h
Activity calls are given as the source filed them. Rule as the data show it: active = GI50 up to about 1.1 µM and inactive = higher.
Please state which outcome applies, choosing from active, inactive

>>> qualitative_label("CC(=O)OCC1OC(N2C(=O)CC(N)=Nc3ccccc32)C(OC(C)=O)C(OC(C)=O)C1OC(C)=O (stereo unspecified)")
"inactive"
>>> qualitative_label("CCC1CN2CCc3c([nH]c4ccccc34)[C@@](C(=O)OC)(c3cc4c(cc3OC)N(C)C3C(O)(C(=O)OC)C(C(=O)OC)C5(CC)C=CCN6CCC43C65)C[C@@H](C2)[C@@H]1C(C)(C)C (stereo partly specified)")
"inactive"
>>> qualitative_label("N#CC[N+]1(Cc2ccccn2)CCCC1.O=S(=O)([O-])c1ccccc1")
"inactive"
>>> qualitative_label("CCCCn1c(C)c2c(c1C)C(=O)N(CCN1CCN(c3ccccc3Cl)CC1)C2=O")
"inactive"
>>> qualitative_label("CCCCN1C(=O)c2c(-c3sccc3N)sc(-c3sccc3N)c2C1=O")
"inactive"
>>> qualitative_label("CC(=O)C1C(=O)C(=O)N(c2cccc([N+](=O)[O-])c2)C1=O (stereo unspecified)")
"inactive"
>>> qualitative_label("C=CCOc1cccc(C2(O)c3ccccc3C3=NCCCN32)c1 (stereo unspecified)")
"inactive"
>>> qualitative_label("CC(C)(CN)SCc1ccccc1")
"inactive"

Prompt line: Hi, sorry to bother you, what did the test record for "N=C(N)SCc1cc(Cl)cc(Cl)c1O" ?
Response line: inactive

Prompt line: Hi, sorry to bother you, what did the test record for "CCOC(=O)c1cc(C2=CCNC2=O)c(-c2cc(C)no2)[nH]1" ?
Response line: inactive

Prompt line: Hi, sorry to bother you, what did the test record for O=C(CC(C(=O)c1cccs1)c1ccsc1)c1ccsc1 (stereo unspecified) ?
Response line: inactive

Prompt line: Hi, sorry to bother you, what did the test record for "Cc1ccc(S(=O)(=O)NCCN(CCNS(=O)(=O)c2ccc(C)cc2)S(=O)(=O)c2ccc(C)cc2)cc1" ?
Response line: inactive

Prompt line: Hi, sorry to bother you, what did the test record for COc1ccc([C@@]23Oc4cc(OC)cc(OC)c4[C@]2(O)[C@H](O)[C@H](C(N)=O)[C@H]3c2ccccc2)cc1 [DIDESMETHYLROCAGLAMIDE] ?
Response line: active

Prompt line: Hi, sorry to bother you, what did the test record for "O=C1C(Cl)=CC2(C=C1Cl)CCNC1=C2C(=O)c2nc[nH]c2C1=O" ?
Response line: inactive

Prompt line: Hi, sorry to bother you, what did the test record for "CSc1nnnc2ccccc12" ?
Response line: inactive

Prompt line: Hi, sorry to bother you, what did the test record for "Cc1n[nH]c(=O)n1C1CCCC1" ?
Response line: inactive

Prompt line: Hi, sorry to bother you, what did the test record for "O=CNc1ccc(S(=O)(=O)c2ccc(NC=O)cc2)cc1" ?
Response line: inactive

Prompt line: Hi, sorry to bother you, what did the test record for "CSC(SC)=C(C(=O)O)P(=O)(O)O" ?
Response line: inactive

Prompt line: Hi, sorry to bother you, what did the test record for "Cc1ccc(C(=O)N/N=C(\N=N\c2ccccc2)c2ccc(N(C)C)cc2)cc1" ?
Response line: inactive

Prompt line: Hi, sorry to bother you, what did the test record for CCCCCCCCCCCCCC(=O)O[C@H]1CC[C@H](NC(=O)[C@H](OC)[C@H](O)[C@@H](O)[C@H](O)/C=C/C(C)C)C(=O)NC1 [BENGAMIDE A] ?
Response line: inactive

Prompt line: Hi, sorry to bother you, what did the test record for "O=C1C=C2SC3C[C@@]24CC1[N+]1=c2c4c(c(O)c4c2=C(C=N4)CC1)N3" ?
Response line: inactive
